# Tested on: Enterococcus faecium
# Assay Info: Antibacterial activity against 10^4 CFU Enterococcus faecium 06-7 after 18 hrs by CLSI agar dilution method
# Format: functional
# Experimental Setup: 06-7, 18 h
Here, each record is paired with measured MIC data.

Problem: Which MIC value is on record for CO/N=C1\CN(c2c(F)cc3c(=O)c(C(=O)O)cn(C4CC4)c3c2OC(F)F)CCC1(C)N (configuration not stated) ?
Solution: > 128 mg/L

Problem: What do you get for CCO/N=C1\CN(c2c(F)cc3c(=O)c(C(=O)O)cn(C4CC4)c3c2OC)CCC1(C)N (configuration not stated) ?
Solution: 128 mg/L

Problem: What do you get for CCO/N=C1\CN(c2c(F)cc3c(=O)c(C(=O)O)cn(C4CC4)c3c2F)CCC1(C)N (configuration not stated) ?
Solution: > 128 mg/L

---

# System: Enterococcus faecalis
# Assay Info: Antibacterial activity against 10^4 CFU Enterococcus faecalis 08-10 after 18 hrs by CLSI agar dilution method
# Format: functional
# Experimental Setup: 08-10, 18 h
Binarize MIC at 8 µg/mL; below is true, at or above is false.

>>> answer_label("CCO/N=C1\\CN(c2c(F)cc3c(=O)c(C(=O)O)cn(CC)c3c2F)CCC1(C)N (configuration not stated)")
"true"
>>> answer_label("CO/N=C1\\CN(c2nc3c(cc2F)c(=O)c(C(=O)O)cn3C2CC2)CC1CN (configuration not stated) [GEMIFLOXACIN]")
"false"
>>> answer_label("CO/N=C1\\CN(c2nc3c(cc2F)c(=O)c(C(=O)O)cn3C2CC2)CCC1(C)N (configuration not stated)")
"false"
>>> answer_label("CCO/N=C1\\CN(c2c(F)cc3c(=O)c(C(=O)O)cn4c3c2OC[C@@H]4C)CCC1(C)N (some centres not stated)")
"false"
>>> answer_label("CCO/N=C1\\CN(c2nc3c(cc2F)c(=O)c(C(=O)O)cn3C2CC2)CCC1(C)N (configuration not stated)")
"false"

Problem: Please check: MIC for CCO/N=C1\CN(c2c(F)cc3c(=O)c(C(=O)O)cn(C4CC4)c3c2F)CCC1(C)N (configuration not stated) , strictly under 8 µg/mL or not?
Solution: true

Problem: What do you get for CO/N=C1\CN(c2c(F)cc3c(=O)c(C(=O)O)cn(C4CC4)c3c2OC)CCC1(C)N (configuration not stated) ?
Solution: true

Problem: What do you get for CCO/N=C1\CN(c2c(F)cc3c(=O)c(C(=O)O)cn(C4CC4)c3c2OC)CCC1(C)N (configuration not stated) ?
Solution: true

Problem: What do you get for CO/N=C1\CN(c2c(F)cc3c(=O)c(C(=O)O)cn4c3c2OC[C@@H]4C)CCC1(C)N (some centres not stated) ?
Solution: false

Problem: What do you get for CO/N=C1\CN(c2nc3c(cc2F)c(=O)c(C(=O)O)cn3-c2ccc(F)cc2F)CCC1(C)N (configuration not stated) ?
Solution: false

Problem: What do you get for CO/N=C1\CN(c2c(F)cc3c(=O)c(C(=O)O)cn(CCF)c3c2F)CCC1(C)N (configuration not stated) ?
Solution: false

Problem: What do you get for CCn1cc(C(=O)O)c(=O)c2cc(F)c(N3CCC(C)(N)/C(=N/OC)C3)c(F)c21 (configuration not stated) ?
Solution: false
